Test system: NCI-H226 lung
Assay: NCI-60 one-dose screen, 48 h (100 = growth as untreated, 0 = no growth, -100 = all killed)
Settings: 10 µM unless noted
This is part of a sample that, as a whole, favours compounds with a hit. Of some 83,000 tested, about 20% had one in any assay.
Rule: growth below 90% gives criterion met, anything at or above gives criterion not met.

>>> class("CC[N+](CC)(CCCC(C)[N+]1(Cc2ccccc2)C(C)=CC=C1C)Cc1ccccc1 (stereo unspecified)")
"criterion met"
>>> class("CS(=O)(=O)c1ccc(-c2cc3c(oc2=O)-c2ccccc2OC3O)cc1 (stereo unspecified)")
"criterion met"
>>> class("COc1ccccc1/C=C1\\Oc2cc(OCCCN3CCCC3)ccc2C1=O")
"criterion not met"
>>> class("CCc1c(Nc2ccc(C)cc2)[nH]c(N)nc1=S")
"criterion not met"
>>> class("Cc1cccc(Oc2ccc(Nc3ncnc4ccc(NC(=O)CNCCO)cc34)cc2Cl)c1")
"criterion not met"
>>> class("Cc1nc2sc(C(=O)Nc3ccccc3)c(N)c2cc1C(=O)c1ccc(C(F)(F)F)cc1")
"criterion not met"
>>> class("CC(=O)OCCCCCNc1ccccc1")
"criterion not met"
>>> class("COc1cccc2c1C(=O)c1c(O)c3c(c(O)c1C2=O)C[C@@](O)(C(=O)CO)C[C@@H]3O[C@H]1C[C@H](N)[C@@H](O)[C@H](C)O1")
"criterion met"
>>> class("CC(=O)[C@@H]1CC[C@]2(C(N)=O)CC[C@]3(C)[C@H](CC[C@@H]4[C@@]5(C)CCC(=O)C(C)(C)[C@@H]5CC[C@]43C)[C@@H]12")
"criterion not met"
>>> class("BrC(Br)(Br)c1cnc2ccccc2n1")
"criterion met"
>>> class("COc1cccc(-c2nc3occn3c2-c2ccnc(NCCCNS(=O)(=O)c3cccc(F)c3)n2)c1")
"criterion met"
>>> class("CC(N)C(=O)NNc1n[nH]c(=S)n1N (stereo unspecified)")
"criterion not met"
>>> class("COc1cc(/C=C/C(=O)c2ccc(Nc3ncnc4ccccc34)cc2)cc(OC)c1")
"criterion met"
>>> class("CCCCCCOc1ccc(/C=N/Nc2cc(C)nc3ccc(Br)cc23)cc1")
"criterion met"
>>> class("c1ccc(-c2nnc(Nc3ccc4c(c3)OCCO4)o2)c(NCc2ccncc2)c1")
"criterion met"
>>> class("O=C(CCN1CCCC1)Nc1ccc2c(Nc3ccccc3)c3ccccc3nc2c1")
"criterion met"
>>> class("N#CSCC1CC(O)(c2ccccc2)C(c2ccccc2)C(c2ccc(F)cc2)O1 (stereo unspecified)")
"criterion met"
>>> class("CCN(CC)CCCC(C)Nc1cc(-c2cccc(OC(F)(F)F)c2)nc2ccc(N3CCCC3)cc12 (stereo unspecified)")
"criterion met"
>>> class("COc1ccc(Nc2nc(N)nc3c2CCc2occc2-3)cc1")
"criterion not met"
>>> class("N/C(=N\\N=C\\c1cc2ccccc2s1)N/N=C/c1cc2ccccc2s1")
"criterion not met"
>>> class("NC(=O)c1cccc(-c2cc(C(N)=O)ccc2Cl)c1")
"criterion met"
>>> class("O=C(NCCc1ccccn1)OCc1nc2nc(Cl)nc(N3CCOCC3)c2[nH]1")
"criterion met"
>>> class("COc1ccc(-c2nc(N=Nc3c(O)[nH]c4ccccc34)nc(N3CCOCC3)c2C#N)cc1")
"criterion met"
>>> class("CC(=O)NCCCS(=O)(=O)O")
"criterion not met"
>>> class("Nc1ncc(C#Cc2cncc(NC(=O)c3cccc(C(F)(F)F)c3)c2)c2cccnc12")
"criterion met"

---

Test system: HCT-116 colon
Experiment: NCI-60 one-dose screen, 48 h (100 = growth as untreated, 0 = no growth, -100 = all killed)
Conditions: 10 µM unless noted
The panel holds about 83,000 compounds, 20% with a hit somewhere; the sample as a whole holds those more often.
Assay Readout: growth (%)

>>> quantitative_result("COc1ccc(-c2nn(Cc3ccccc3)c3c2-c2oncc2CC3)cc1OC")
107
>>> quantitative_result("COC(=O)Nc1nc2ccc(C(=O)c3cccc(I)c3)cc2[nH]1")
9.66
>>> quantitative_result("COc1cc(NCC(O)CN(CC(C)C)CC(C)C)c2nc(C)ccc2c1 (configuration not stated)")
97.3
>>> quantitative_result("COc1ccc(C2=NN(C(C)=O)C(c3cn(Cc4ccc(Cl)cc4)c4ccccc34)C2)cc1 (configuration not stated)")
86.3
>>> quantitative_result("c1ccc(Cn2nc3c(c2-c2ccccc2)-c2oncc2CC3)cc1")
94.2
>>> quantitative_result("COc1cc2ncnc(Nc3ccc(C(=O)/C=C/c4ccc(C(F)(F)F)cc4F)cc3)c2cc1OC")
-62.7
>>> quantitative_result("COc1ccccc1-c1c(-c2ccc(Cl)cc2)c2cc3c(cc2[nH]c1=O)OCCO3")
47.7
>>> quantitative_result("CCCCOc1ccc(/C=N/Nc2cc(C)nc3ccc(Cl)cc23)cc1")
-68
>>> quantitative_result("Cc1cc(C)c(C=O)c(C)c1")
83.1
>>> quantitative_result("COc1ccc(/C=C/C(=O)c2ccc(OC)c(OC)c2)cc1O")
20.3
>>> quantitative_result("Cc1nccc2c3ccc(OCc4cn(-c5ccc(Cl)cc5)nn4)cc3n(CCCc3ccccc3)c12")
31.7
>>> quantitative_result("CN(C)C(=O)c1cc2cnc(Nc3ccc(-c4csc5c(=O)cc(N6CCOCC6)oc45)cc3)nc2n1C1CCCC1")
-29.2
>>> quantitative_result("O=C1Nc2c(ccc(Cl)c2Cl)/C1=C/c1ccc(F)cc1")
84.4
>>> quantitative_result("O=C(Nc1cccc(Cl)c1)Oc1c(Br)c(Br)c(Br)c(Br)c1Br")
80.3
>>> quantitative_result("COc1ccc(C(=O)c2cc3c(N)c(C(=O)Nc4cccc5ccccc45)sc3nc2C)cc1")
6.55
>>> quantitative_result("Cn1c(COC(=O)N2CCCCC2)nc2c(N3CCOCC3)nc(-c3ccccc3)nc21")
-59.3
>>> quantitative_result("Fc1ccc(C2CC(c3cccc(Nc4ccncc4)c3)=NN2c2cc(Cl)cc(Cl)c2)cc1 (configuration not stated)")
98.8

---

Tested on: OVCAR-4 ovarian
Assay: NCI-60 one-dose screen, 48 h (100 = growth as untreated, 0 = no growth, -100 = all killed)
Details: 10 µM unless noted
About 83,000 compounds went through this panel and 20% of them were active in at least one assay; those are over-represented in the sample as a whole.
Assay Readout: growth (%)

>>> quantitative_result("COc1ccc(C(O)c2cc3c(N)c(C(=O)Nc4cccc(Br)c4C)sc3nc2C)cc1 (configuration not stated)")
47.4
>>> quantitative_result("CCCCCCCCCCN=C(N)N=C(N)N")
44.9
>>> quantitative_result("O=S(=O)(O)c1cc(O)c2c(N=Nc3ccc(Nc4ccccc4)c4c(S(=O)(=O)O)cccc34)cc(S(=O)(=O)O)cc2c1")
113
>>> quantitative_result("COc1ccc(CC(C)=C(c2ccc(OCCN(C)C)cc2)c2ccc(OCCN(C)C)cc2)cc1")
90.1
>>> quantitative_result("CCCCCCCCCCCC(=O)C(CCCCCCCCCC)C(=O)Nc1ccccc1 (configuration not stated)")
102
>>> quantitative_result("c1ccc2c(-c3c4ccsc4cc4[nH]c5ccccc5c34)c[nH]c2c1")
40.8
>>> quantitative_result("O=S(=O)(c1ccccc1)N1CCCc2ccccc21")
113

---

System: T-47D breast
Test: NCI-60 one-dose screen, 48 h (100 = growth as untreated, 0 = no growth, -100 = all killed)
Settings: 10 µM unless noted
About 83,000 compounds went through this panel and 20% of them were active in at least one assay; those are over-represented in the sample as a whole.
Bucketed by reported growth, buckets being 1 = under 40%, 2 = from 40% up to 80%, 3 = 80% and over

>>> class("COc1ccc(/C(C)=N/NC(=O)CSc2nc3ccccc3c(=O)n2Cc2ccc(S(N)(=O)=O)cc2)c(OC)c1")
3
>>> class("NC(=O)c1cccc(-c2cc(C(N)=O)ccc2Cl)c1")
1
>>> class("COc1ccc(-c2nc(SC(C)C)nc(NNC(N)=O)c2C#N)cc1")
3
>>> class("CNC(=O)NCC1OC(n2cnc3c(NC(=O)Nc4ccccc4)ncnc32)C(O[Si](C)(C)C(C)(C)C)C1O[Si](C)(C)C(C)(C)C (stereo unspecified)")
1
>>> class("Cc1nn(-c2ccccc2)c(N2CCOCC2)c1/C=N/N=c1\\sc2ccccc2n1C")
2
>>> class("COc1ccc(C2=C(c3ccccc3)c3ccc(OC(C)=O)cc3OC2(C)C)cc1")
3
>>> class("O=C(O)CCCCCCCCCCCCCCC(=O)O")
3
>>> class("Cc1ccc2[nH]c(=S)n(-c3ccc(S(=O)(=O)Nc4ccc(Cl)nn4)cc3)c(=O)c2c1")
3
>>> class("CC(C)(C)CC(C)(C)Nc1c(-c2ccc(C(F)(F)F)cc2)nc2cnccn12")
2
>>> class("COc1ccc(C(O)c2cc3c(N)c(C(=O)Nc4cccc(Br)c4C)sc3nc2C)cc1 (stereo unspecified)")
2
>>> class("CC(=O)c1c[nH]c2ccc(-c3ccnc(Nc4ccc(NC(=O)C5CCCC5)c(CN5CCOCC5)c4)n3)cc12")
1
>>> class("CC(=O)Nc1ccc(S(=O)(=O)NC2CCCCC2)cc1")
3
>>> class("N#CSCC1CC(O)(c2ccccc2)C(c2ccccc2)C(c2ccc(F)cc2)O1 (stereo unspecified)")
1
>>> class("Clc1nc(Nc2ccccc2)nc(Nc2ccccc2)n1")
2
>>> class("CC(=O)CCSc1ccc(OC(C)=O)cc1")
3
>>> class("O=C1NC(=S)NC(=O)C1=Cc1cccc(C=C2C(=O)NC(=S)NC2=O)c1")
3
>>> class("COc1ccc(/C=C/C(=O)c2ccc(OC)c(OC)c2)cc1O")
2
>>> class("CCOC(=O)Oc1c(OC)cc(C(=O)O[C@@H]2C[C@@H]3CN4CCc5c([nH]c6cc(OC)ccc56)[C@H]4C[C@@H]3[C@H](C(=O)OC)[C@H]2OC)cc1OC")
1
>>> class("COc1ccc(C(=O)/C=C/c2c(OC)cc(OC)cc2OC)c(OC)c1")
1
>>> class("CC(=O)N1c2ccccc2NC2=C(C(=O)N(C)C2(C)C)C1C (stereo unspecified)")
1
>>> class("O=C(N/N=C/c1ccncc1)c1ccccc1Nc1cccc(C(F)(F)F)c1")
2
>>> class("COc1ccc(Cc2nc3cc(OC)c(OC)cc3c(=O)[nH]2)cc1")
3
>>> class("CN1CCN(c2c(F)cc(NC3=C(Cl)C(=O)c4ncccc4C3=O)cc2F)CC1")
1
>>> class("CC(C)Cc1ccc(C(C)C(=O)NCc2ccc(Cn3c(=O)sn(-c4ccc(Cl)cc4)c3=O)cc2)cc1 (stereo unspecified)")
2
>>> class("COC(=O)C1=C(C(=O)ONCCN(C)C)C2C=CC1(C(Cc1ccccc1)Nc1ccc(F)cc1)O2 (stereo unspecified)")
1
